Reference source for all entries: patent US20250388574A1

# assayed system: hTREM2 (Homo sapiens, UniProt Q9NZC2)
# Sequence (Q9NZC2 19-230): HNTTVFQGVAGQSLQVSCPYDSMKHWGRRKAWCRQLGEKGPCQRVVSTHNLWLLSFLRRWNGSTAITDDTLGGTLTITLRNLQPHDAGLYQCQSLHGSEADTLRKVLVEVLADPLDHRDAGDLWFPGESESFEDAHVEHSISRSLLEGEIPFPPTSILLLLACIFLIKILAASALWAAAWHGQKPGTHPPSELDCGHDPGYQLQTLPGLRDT
# Sequence (O43914 22-113 partner): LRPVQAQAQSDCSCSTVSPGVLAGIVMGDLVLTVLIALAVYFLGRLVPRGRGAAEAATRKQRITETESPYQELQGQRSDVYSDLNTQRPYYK
# assay explanation: Phospho-Syk AlphaScreen/AlphaLISA assay in TREM2 and DAP12 overexpressing HEK293 cells (Example A1)
# Type: cell-based
# Set-up: expressed in transfected cells
# condition set: HEK293 cells, read-out: hTREM2 EC50
pEC50: −log10 of the molar value.
In this section, each of the compounds is paired with its reported pEC50.

• CCCn1c(C)nc2cc(N3CCOC(CF)C3)nc(-c3ccc(Cl)cc3F)c2c1=O (stereo not shown) [Example 185] = 5.52 to 6.30
• Cc1nc2cc(N3CCO[C@@H](c4cnn(C)c4)C3)nc(-c3ccc(Cl)cn3)c2c(=O)n1C [Example 212] = 4.00 to 5.52
• Cc1nc2cc(N3CCC[C@H](c4ccccc4)C3)nc(-c3ccc(Cl)cc3F)c2c(=O)n1C [Example 213] = 4.00 to 5.52
• CCn1c(C(F)(F)F)nc2cc(N3CCO[C@@H](c4cnn(C)c4)C3)nc(-c3ccc(Cl)cc3F)c2c1=O [Example 144] = 6.30 to 7.30
• Cc1nn(C)cc1[C@H]1CN(c2cc3nc(C)n(C)c(=O)c3c(-c3ccc(Cl)cc3F)n2)CCO1 [Example 263] = 6.30 to 7.30

Report pEC50, nothing else, for this compound: Cc1nc2cc(N3CCO[C@@H]([C@H]4CCOC4)C3)nc(-c3ccc(Cl)cc3F)c2c(=O)n1C (single isomer, unassigned) [Example 42]
6.30 to 7.30

Report pEC50, nothing else, for this compound: Cc1nc2cc(N3CCO[C@@H](C4CC4)C3)nc(-c3ccc(Cl)cc3F)c2c(=O)n1C [Example 188]
5.52 to 6.30

----------
# assayed system: hTREM2 (Homo sapiens, UniProt Q9NZC2)
# assay explanation: Phospho-Syk AlphaScreen/AlphaLISA assay in TREM2 and DAP12 overexpressing HEK293 cells (Example A1)
# Assay type: cell-based
# Parameters: expressed in transfected cells
# condition set: HEK293 cells
attribute measured: Emax

Examples from the recorded data:
• CCCn1c(C)nc2cc(N3CCO[C@@H](c4ccccc4)C3)nc(-c3ccc(Cl)cc3F)c2c1=O = ++++ (Emax>300)
• Cn1cc([C@H]2CN(c3cc4nc(C5CC5)n(C)c(=O)c4c(-c4ccc(Cl)cc4F)n3)CCO2)cn1 = ++++ (Emax>300)
• Cc1nc2cc(N3CCC[C@H](c4cnn(C)c4)C3)nc(-c3ccc(Cl)cc3F)c2c(=O)n1C (single isomer, unassigned) [Example 100] = +++ (Emax>200 and ≤300)
• Cc1nc2cc(N3CCO[C@@H](c4cnn(C5CC(F)(F)C5)c4)C3)nc(-c3ccc(Cl)cc3F)c2c(=O)n1C = +++ (Emax>200 and ≤300)
• CCCn1c(C)nc2cc(N3CCO[C@@H](c4cnn(C)c4)C3)nc(-c3ccc(Cl)cc3F)c2c1=O = +++ (Emax>200 and ≤300)
• Cc1nc2cc(N3CCO[C@H](c4ccncc4)C3)nc(-c3ccc(Cl)cc3F)c2c(=O)n1C (single isomer, unassigned) [Example 48] = +++ (Emax>200 and ≤300)
• Cc1cc([C@H]2C[C@@H](c3cc4nc(C)n(C)c(=O)c4c(-c4ccc(Cl)cc4F)n3)CCO2)ccn1 (single isomer, unassigned) = +++ (Emax>200 and ≤300)
• Cc1nc2cc(N3CCC[C@H](c4cnn(C)c4)C3)nc(-c3ccc(Cl)cc3F)c2c(=O)n1C [Example 214] = ++++ (Emax>300)
• CCn1c(C)nc2cc(N3CCO[C@@H](c4noc(C)n4)C3)nc(-c3ccc(Cl)cc3F)c2c1=O = ++++ (Emax>300)
• Cc1nc2cc(N3CCOC(C)(c4cnn(C)c4)C3)nc(-c3ccc(Cl)cc3F)c2c(=O)n1C (centres unmarked) = ++++ (Emax>300)

Enter Emax (test system hTREM2 (Homo sapiens, UniProt Q9NZC2)) for Cc1ccc(C2CN(c3cc4nc(C)n(C)c(=O)c4c(-c4ccc(Cl)cc4F)n3)CCO2)cn1 (centres unmarked)
++++ (Emax>300)

Enter Emax (test system hTREM2 (Homo sapiens, UniProt Q9NZC2)) for Cc1nc2cc(N3CCO[C@H](c4ccncc4)C3)nc(-c3ccc(Cl)cc3F)c2c(=O)n1C [Example 226]
++++ (Emax>300)

Enter Emax (test system hTREM2 (Homo sapiens, UniProt Q9NZC2)) for Cc1nc2cc(N3C[C@H](c4cnn(C)c4)OC[C@H]3C)nc(-c3ccc(Cl)cc3F)c2c(=O)n1C (single isomer, unassigned)
+++ (Emax>200 and ≤300)

Enter Emax (test system hTREM2 (Homo sapiens, UniProt Q9NZC2)) for "Cc1nc2cc(N3CCO[C@@H](c4cnn(C)c4)C3)nc(-c3ccc(F)cc3)c2c(=O)n1C"
++++ (Emax>300)

----------
# assayed system: hTREM2 (Homo sapiens, UniProt Q9NZC2)
# assay explanation: Phospho-Syk AlphaScreen/AlphaLISA assay in TREM2 and DAP12 overexpressing HEK293 cells (Example A1)
# Assay type: cell-based
# Set-up: expressed in transfected cells
# condition set: hTREM2 EC50, HEK293 cells
attribute measured: EC50

Report EC50, nothing else, for this molecule: Cc1nc2cc(N3CCO[C@@H](c4cnn(C(F)CF)c4)C3)nc(-c3ccc(Cl)cc3F)c2c(=O)n1C (stereo partly shown) [Example 135]
50 to 500 nM

----------
# assayed system: hTREM2 (Homo sapiens)
# assay explanation: Phospho-Syk AlphaScreen/AlphaLISA assay in TREM2 and DAP12 overexpressing HEK293 cells (Example A1)
# Format: cell-based
# Set-up: expressed in transfected cells
# condition set: HEK293 cells, read-out: hTREM2 EC50
In this section, each of the compounds is paired with its reported EC50.

Examples from the recorded data:
* Cc1cnn([C@H]2CCCN(c3cc4nc(C)n(C)c(=O)c4c(-c4ccc(Cl)cc4F)n3)C2)c1 | 0.5 to 3 µM
* Cc1nc2cc(N3CCO[C@H]([C@@H]4CCOC4)C3)nc(-c3ccc(Cl)cc3F)c2c(=O)n1C (single isomer, unassigned) | 0.5 to 3 µM
* Cc1nc2cc(N3CCC[C@@H](c4ccncc4)C3)nc(-c3ccc(Cl)cc3F)c2c(=O)n1C (single isomer, unassigned) | 0.05 to 0.5 µM
* Cc1nc2cc(N3CCC[C@H](N4CCC4)C3)nc(-c3ccc(Cl)cc3F)c2c(=O)n1C | 3 to 100 µM
* CCCn1c(C)nc2cc(N3CCO[C@H](c4cnn(C)c4)C3)nc(-c3ncc(Cl)cc3F)c2c1=O | 3 to 100 µM

Enter EC50 (test system hTREM2 (Homo sapiens)) for "Cc1nc2cc(N3CCC(F)(F)[C@H](N4CCC4)C3)nc(-c3ccc(Cl)cc3F)c2c(=O)n1C"
0.5 to 3 µM

Enter EC50 (test system hTREM2 (Homo sapiens)) for Cc1nc2cc(N3CCO[C@H]([C@@H]4CCO4)C3)nc(-c3ccc(Cl)cc3F)c2c(=O)n1C [Example 269]
0.5 to 3 µM

----------
# assayed system: hTREM2 (Homo sapiens, UniProt Q9NZC2)
# assay explanation: Phospho-Syk AlphaScreen/AlphaLISA assay in TREM2 and DAP12 overexpressing HEK293 cells (Example A1)
# Assay type: cell-based
# Set-up: expressed in transfected cells
# condition set: HEK293 cells, read-out: hTREM2 EC50
# Text: Pharmacological measurements of TREM2 signaling through DAP12 were made with TREM2 and DAP12 overexpressing HEK293 cells stable cell lines that had been single-cell cloned (“TREM2/DAP12-HEK”). The readout of the TREM2 signaling utilized Perkin Elmer AlphaScreen/AlphaLISA technology monitoring the phosphorylation levels of the Syk kinase. […]
In this section, each of the compounds is paired with its reported EC50.

Examples from the recorded data:
• Cc1nc2cc(N3CCC[C@@H](c4cn[nH]c4)C3)nc(-c3ccc(Cl)cc3F)c2c(=O)n1C (single isomer, unassigned) = < 50 nM
• Cc1nc2cc(N3CCc4ncccc4C3)nc(-c3ccc(Cl)cc3F)c2c(=O)n1C = 3000 to 100000 nM
• Cc1nc2cc(N3CCOC(c4ccc(C#N)cc4)C3)nc(-c3ccc(Cl)cc3F)c2c(=O)n1C (centres unmarked) = 50 to 500 nM
• Cc1nc2cc(N3CCO[C@@H](c4cnn(CCF)c4)C3)nc(-c3ccc(Cl)cc3F)c2c(=O)n1C = < 50 nM
• CCCn1c(C)nc2cc(N3CCO[C@H](C(F)(F)F)C3)nc(-c3ccc(Cl)cc3F)c2c1=O = 500 to 3000 nM

Report EC50, nothing else, for this compound: Cc1nc2cc(N3CCO[C@@H](c4ccncc4)C3)nc(-c3ccc(Cl)cc3F)c2c(=O)n1C (single isomer, unassigned)
< 50 nM

Report EC50, nothing else, for this compound: "Cc1nc2cc(N3CCO[C@@H](c4cnn(C)c4)C3)nc(-c3ccc(F)cc3)c2c(=O)n1C"
500 to 3000 nM

Report EC50, nothing else, for this compound: COc1cccc([C@@H]2CN(c3cc4nc(C)n(C)c(=O)c4c(-c4ccc(Cl)cc4F)n3)CCO2)c1 (single isomer, unassigned) [Example 81]
3000 to 100000 nM
